Attribution: PubChem BioAssay (EPA / NIEHS)

Assayed target: Tyrosine-protein phosphatase non-receptor type 11 (Homo sapiens) (UniProt Q06124)
Sequence (Q06124 whole entry, looked up): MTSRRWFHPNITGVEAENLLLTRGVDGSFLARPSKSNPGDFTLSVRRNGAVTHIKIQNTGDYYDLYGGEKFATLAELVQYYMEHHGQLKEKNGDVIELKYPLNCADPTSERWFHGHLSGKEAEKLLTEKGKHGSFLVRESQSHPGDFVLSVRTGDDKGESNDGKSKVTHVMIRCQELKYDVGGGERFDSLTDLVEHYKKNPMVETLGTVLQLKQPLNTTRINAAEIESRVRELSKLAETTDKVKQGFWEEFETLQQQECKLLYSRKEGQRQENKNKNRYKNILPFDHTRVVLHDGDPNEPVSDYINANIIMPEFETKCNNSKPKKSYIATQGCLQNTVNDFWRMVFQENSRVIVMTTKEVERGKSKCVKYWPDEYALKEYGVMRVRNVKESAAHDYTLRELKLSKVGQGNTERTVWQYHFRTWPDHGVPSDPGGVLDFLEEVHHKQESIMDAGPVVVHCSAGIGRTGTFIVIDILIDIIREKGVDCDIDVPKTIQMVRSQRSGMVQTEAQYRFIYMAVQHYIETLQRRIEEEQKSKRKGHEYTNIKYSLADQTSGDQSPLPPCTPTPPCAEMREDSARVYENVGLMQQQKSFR
Assay details: NVS_ENZ_hPTPN11: NovaScreen (NVS) Enzymatic Assay for human Protein Tyrosine Phosphatase Non-receptor Type 11 (PTPN11) (AID 2283202)
Results filed as inconclusive are left out. Calls of active or inactive are those of the source. Rule for the calls: active = hit-call score of the fitted dose curve at least 0.9, where 1 is the maximum; inconclusive = response in the unintended direction; inactive = score below 0.9.
Labels: active, inactive

# Compound, Cat
measured = [
    ("O=C(CCCCCCCCc1cccnc1)N1CCC(C=C(c2ccccc2)c2ccccc2)CC1", "inactive"),
    ("O=C(O)c1cccc(Oc2ccccc2)c1", "inactive"),
    ("Nc1nc2ncc(CNc3ccc(C(=O)N[C@@H](CCC(=O)O)C(=O)O)cc3)nc2c(=O)[nH]1", "active"),
    ("O=C(O)c1cc(N=Nc2ccc(S(=O)(=O)Nc3ccccn3)cc2)ccc1O", "inactive"),
    ("CC[C@H](C)C(=O)O[C@H]1C[C@@H](C)C=C2C=C[C@H](C)[C@H](CC[C@@H]3C[C@@H](O)CC(=O)O3)[C@H]21", "inactive"),
]

* * *

Assay details: CCTE_Padilla_ZF_144hpf_TERATOSCORE: (Legacy) CCTE's 144 Hour Post-fertilization zebrafish Assay Teratoscore, Padilla Lab (AID 2283679)
Active and inactive are the calls of the source. The calls were made as follows: active = hit-call score of the fitted dose curve at least 0.9, where 1 is the maximum; inactive = score below 0.9.
Labels: active, inactive

# Molecule, Cat
rows = [
    ("COC(=O)CC(=O)OC", "inactive"),
    ("CC(C)CCO", "inactive"),
    ("O=C(NS(=O)(=O)/C=C/c1ccccc1)c1ccc(F)cc1Cl", "inactive"),
    ("O=P(OC(CCl)CCl)(OC(CCl)CCl)OC(CCl)CCl", "active"),
    ("CC1(C)C(=O)N(Br)C(=O)N1Br", "inactive"),
    ("CCCN(C1CCN(C(=O)C2CCNCC2)CC1)[C@@H]1CCc2ccc(OC)cc2C1", "inactive"),
    ("O=C(O)c1cccc(Oc2ccccc2)c1", "active"),
    ("COc1ccc(-n2nc(C(F)F)cc2-c2ccc(S(C)=O)cc2)cc1 (configuration not stated)", "active"),
    ("COc1cccc(-c2ccc(/C=C\\CN3CCCCCC3)cc2Cl)c1", "active"),
    ("Clc1nc(Cl)c(Cl)c(Cl)c1Cl", "active"),
    ("Fc1ccccc1[C@@H](F)COC1CCC(Nc2ncnc3[nH]ncc23)CC1 (some centres not stated)", "active"),
    ("Cc1ccc(N)cc1O", "inactive"),
]

* * *

Read-out: Transforming Growth Factor (TGFB1), TGFB1 (gene 7040)
Assay details: LTEA_HepaRG_TGFB1: Life Technologies and Expression Analysis (LTEA) Assay for Transforming Growth Factor (TGFB1) Transporter using HepaRG (AID 2283533)
Measurement setup: mRNA level, 48 h; actives raise or lower the signal
Calls of active or inactive are those of the source. The calls were made as follows: active = hit-call score of the fitted dose curve at least 0.9, where 1 is the maximum; inactive = score below 0.9.

# Compound, outcome
records = [
    ("CCN(C(=O)c1cc(C)cc(OC[C@H](C)Nc2ccncc2)c1)C(C)C", "inactive"),
    ("CC/C(=C\\C(=N/O)C(N)=O)C(C)[N+](=O)[O-] (stereo not drawn)", "inactive"),
    ("COCCOc1cc2cc(C(=O)NC3CCN(C(C)C)CC3)n(CC(=O)Nc3ccc(Cl)cn3)c2cn1", "inactive"),
]

* * *

Read-out: Glutathione S-transferase M3 (GSTM3), GSTM3 (gene 2947)
Assay details: LTEA_HepaRG_GSTM3: Life Technologies and Expression Analysis (LTEA) Assay for Glutathione S-transferase M3 (GSTM3) using HepaRG (AID 2283501)
Measurement setup: mRNA level, 48 h; actives raise or lower the signal
The source made the active and inactive calls. The calls were made as follows: active = hit-call score of the fitted dose curve at least 0.9, where 1 is the maximum; inactive = score below 0.9.
Labels: active, inactive

# Compound, Cat
data = [
    ("CC[C@H](C)C(=O)O[C@H]1C[C@@H](C)C=C2C=C[C@H](C)[C@H](CC[C@@H]3C[C@@H](O)CC(=O)O3)[C@H]21", "inactive"),
    ("CCn1nc(Cc2ccccc2)cc1C1CCN(C[C@H]2C[C@H](N(C)[C@@H](C(=O)O)C(C)C)C[C@@H]2c2cccc(F)c2)CC1", "inactive"),
    ("O=c1[nH]c2ccc(S(=O)CCN3CCC(Cc4ccc(F)cc4)CC3)cc2o1 (stereo not drawn)", "inactive"),
    ("CC(C)CCO", "inactive"),
    ("CCOc1cccc(-n2cc(C(=O)N3CCN(c4cc(C(=O)O)c5ccccc5c4)CC3)nc2-c2ccc(C)cc2)c1", "inactive"),
    ("CC1=CC(=O)CC(C)(C)C1", "inactive"),
    ("CN(C)c1ccc(Cc2ccc(N(C)C)cc2)cc1", "inactive"),
    ("Cc1ccc(C)c(O)c1", "inactive"),
    ("O=C(NS(=O)(=O)/C=C/c1ccccc1)c1ccc(F)cc1Cl", "inactive"),
    ("COCCOc1cc2cc(C(=O)NC3CCN(C(C)C)CC3)n(CC(=O)Nc3ccc(Cl)cn3)c2cn1", "active"),
    ("COC(=O)c1c(Cl)c(Cl)c(C(=O)OC)c(Cl)c1Cl", "inactive"),
    ("CC(C)=CCC/C(C)=C\\CO", "inactive"),
    ("CCc1cc(SCc2sc(-c3ccc(C(F)(F)F)cc3)nc2CN2CCN(c3ccc(OC)cc3)CC2)ccc1OCC(=O)O", "inactive"),
    ("CC(C)CCCCCCOC(=O)c1ccc(C(=O)OCCCCCCC(C)C)c(C(=O)OCCCCCCC(C)C)c1", "inactive"),
    ("Cn1c(=O)c2c(ncn2C)n(C)c1=O", "inactive"),
    ("CCC(C)(C)C(=O)O[C@H]1C[C@@H](C)C=C2C=C[C@H](C)[C@H](CC[C@@H]3C[C@@H](O)CC(=O)O3)[C@H]21", "inactive"),
    ("CC(C)(O)c1coc(S(=O)(=O)NC(=O)Nc2c3c(cc4c2CCC4)CCC3)c1", "inactive"),
    ("CC1(C)C(=O)N(Br)C(=O)N1Br", "inactive"),
]

* * *

Read-out: Alkaline Phosphatase, Placental (ALPP) gene, ALPP (gene 250)
Assay details: LTEA_HepaRG_ALPP: Life Technologies and Expression Analysis (LTEA) Assay for Alkaline Phosphatase, Placental (ALPP) gene using HepaRG (AID 2283468);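 for AC50: differentiated human HepaRG liver cells in serum-free induction medium; ALPP transcript by TaqMan qRT-PCR normalized to ACTB GAPDH and POLR2A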
Measurement setup: mRNA level, 48 h; actives raise or lower the signal
Calls of active or inactive are those of the source. The calls were made as follows: active = hit-call score of the fitted dose curve at least 0.9, where 1 is the maximum; inactive = score below 0.9.

# Compound, AC50
rows = [
    ("O=C1OC(=O)C2C3C=CC(C3)C12 (stereo not drawn)", "inactive"),
    ("O=C1CCC(N2C(=O)c3ccccc3C2=O)C(=O)N1 (stereo not drawn)", "inactive"),
    ("CCOC(=O)COc1ccc2c(c1)CC(NCC(O)c1cccc(Cl)c1)CC2 (stereo not drawn)", "16 µM (active)"),
    ("Fc1ccccc1[C@@H](F)COC1CCC(Nc2ncnc3[nH]ncc23)CC1 (stereo partly drawn)", "23.1 µM (active)"),
    ("CC(C)=CCCC(C)CCO (stereo not drawn)", "inactive"),
    ("Cn1cnc([N+](=O)[O-])c1Sc1ncnc2nc[nH]c12", "inactive"),
    ("Cc1ccc(O)cc1", "inactive"),
    ("O=P(OC(CCl)CCl)(OC(CCl)CCl)OC(CCl)CCl", "0.259 µM (active)"),
    ("O=C(O)c1cc(N=Nc2ccc(S(=O)(=O)Nc3ccccn3)cc2)ccc1O", "inactive"),
    ("O=C(O)c1cccc(Oc2ccccc2)c1", "inactive"),
    ("CN(C)c1ccc(N=NS(=O)(=O)O)cc1", "inactive"),
    ("CC(C)=CCC/C(C)=C/CO", "inactive"),
    ("COc1ccc(/C=C/S(=O)(=O)NC(=O)c2ccc(C)cc2Cl)cc1", "inactive"),
]

* * *

Read-out: solute carrier (SLCO1B1), SLCO1B1 (gene 10599)
Assay details: LTEA_HepaRG_SLCO1B1: Life Technologies and Expression Analysis (LTEA) Assay for solute carrier (SLCO1B1) using HepaRG (AID 2283530)
Measurement setup: mRNA level, 48 h; actives raise or lower the signal
Calls of active or inactive are those of the source. Rule for the calls: active = hit-call score of the fitted dose curve at least 0.9, where 1 is the maximum; inactive = score below 0.9.
Labels: y (active), n (inactive)

# Compound, Cat
records = [
    ("Cc1ccc(O)cc1", "n"),
    ("CCCCC(CC)COC(=O)CCCCCCCCC(=O)OCC(CC)CCCC (configuration not stated)", "n"),
    ("CCCN(C1CCN(C(=O)C2CCNCC2)CC1)[C@@H]1CCc2ccc(OC)cc2C1", "y"),
    ("NC(=O)NO", "n"),
    ("O=C1CCC(N2C(=O)c3ccccc3C2=O)C(=O)N1 (configuration not stated)", "n"),
    ("On1ccccc1=S", "n"),
    ("Cc1ccc(C)c(O)c1", "n"),
    ("C1N2CN3CN1CN(C2)C3", "n"),
    ("CC(=O)c1ccc2c(c1)[C@H](NC(=O)c1ccc(F)cc1)[C@@H](O)C(C)(C)O2", "n"),
    ("CCNc1ccccc1", "n"),
    ("CC[C@H]1CC[C@H](NCc2cc3c(cc2OC)[C@H]2C[C@H]2C(=O)N3C)[C@H](c2ccccc2)N1", "n"),
    ("C[C@](N)(Cc1ccc(O)c(O)c1)C(=O)O", "n"),
]
